- target-or-test-system: T1, recombinant extracellular part of PSMA (construct not named; ELISA and SPR) (human, UniProt Q04609 44-750)
- T1 construct: prostate-specific membrane antigen (PSMA), recombinant extracellular part; also called recombinant extracellular domain of PSMA; truncated version of the target enzyme
- T1 sequence (Q04609 44-750): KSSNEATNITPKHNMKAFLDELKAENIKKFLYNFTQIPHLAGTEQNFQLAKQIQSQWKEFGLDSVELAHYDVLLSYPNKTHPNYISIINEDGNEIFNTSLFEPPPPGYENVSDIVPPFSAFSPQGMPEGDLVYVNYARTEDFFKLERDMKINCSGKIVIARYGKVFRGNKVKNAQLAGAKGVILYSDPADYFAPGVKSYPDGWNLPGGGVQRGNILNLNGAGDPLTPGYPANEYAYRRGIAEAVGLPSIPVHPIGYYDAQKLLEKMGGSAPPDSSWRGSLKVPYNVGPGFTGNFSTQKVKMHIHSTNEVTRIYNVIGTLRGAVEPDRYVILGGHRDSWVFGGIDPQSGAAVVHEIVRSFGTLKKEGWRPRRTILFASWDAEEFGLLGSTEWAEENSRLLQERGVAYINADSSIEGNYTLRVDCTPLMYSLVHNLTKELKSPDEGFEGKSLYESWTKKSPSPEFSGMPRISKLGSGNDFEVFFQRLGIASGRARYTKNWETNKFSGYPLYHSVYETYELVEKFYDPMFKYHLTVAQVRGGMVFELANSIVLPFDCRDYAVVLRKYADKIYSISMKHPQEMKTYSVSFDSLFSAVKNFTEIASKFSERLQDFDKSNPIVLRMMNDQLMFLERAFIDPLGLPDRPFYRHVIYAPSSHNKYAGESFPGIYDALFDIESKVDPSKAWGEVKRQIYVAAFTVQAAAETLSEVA
- condition-label: both partners purified
reported-endpoint: EC50 (nM)
The response must be a number in nM with no trailing unit.

Documented EC50 of CDDECPDYVCGGSGK (designed binder, not fully specified; N-terminus acetylated; C-terminal amide; three cysteines cyclized with TBMB; lysine side chain carries (CO)CH2CH2(OCH2CH2)5-NH2 (compound 2), through which the peptide is joined to the HPMA copolymer backbone; the polymer also carries ATTO488 (3.0× per polymer) and biotin (11.6× per polymer), bicyclic Peptide 1 as compound 2, 9.8 copies per polymer (20.4 wt%); Not a polypeptide as a whole: about 9.8 copies of the peptide on a synthetic HPMA copolymer (Mn = 88,100 g/mol, Mw = 104,000 g/mol); also called the iBody; copies: 9.8) [iBody 1, poly(HPMA-co-Ma-β-Ala-compound 2-co-Ma-β-Ala-ATTO488-co-Ma-β-Ala-NH-ED-biotin)] : 2
